Numbers sourced from ChEMBL document CHEMBL1131058.

measured.on: Adrenergic receptor alpha-1 (Rattus norvegicus, UniProt P15823+P23944+P43140)
assay.procedure: Displacement of [3H]-prazosin from Alpha-1 adrenergic receptor of rat cortical membranes
Assay type: cell membranes, Membrane
Hi! Just check whether Ki is below 1 nM. Below gives YES, equal or above gives NO.

Task: For COc1ccccc1N1CCN(CC2CN3C(=O)Nc4ccccc4C3=N2)CC1 (stereo unspecified) , is the recorded Ki below the cut-off of 1 nM?
Result: YES

Task: For COc1ccccc1N1CCN(CC2CN=C3c4ccccc4N=C(SC)N32)CC1 (stereo unspecified) , is the recorded Ki below the cut-off of 1 nM?
Result: YES

Task: For COc1ccccc1N1CCN(C[C@@H]2CN=C3c4ccccc4NC(=O)N32)CC1 , is the recorded Ki below the cut-off of 1 nM?
Result: NO

Task: For COc1ccccc1N1CCN(C[C@H]2CN=C3c4ccccc4NC(=O)N32)CC1 , is the recorded Ki below the cut-off of 1 nM?
Result: YES

Task: For COc1ccccc1N1CCN(C[C@@H]2CN=C3c4ccccc4N=C(SC)N32)CC1 , is the recorded Ki below the cut-off of 1 nM?
Result: NO
